Biological target: AKT1 E17K (Homo sapiens, UniProt P31749, E17K)
Construct: expressed in transfected cells; host or cells: HEK293
Sequence (P31749 whole entry E17K): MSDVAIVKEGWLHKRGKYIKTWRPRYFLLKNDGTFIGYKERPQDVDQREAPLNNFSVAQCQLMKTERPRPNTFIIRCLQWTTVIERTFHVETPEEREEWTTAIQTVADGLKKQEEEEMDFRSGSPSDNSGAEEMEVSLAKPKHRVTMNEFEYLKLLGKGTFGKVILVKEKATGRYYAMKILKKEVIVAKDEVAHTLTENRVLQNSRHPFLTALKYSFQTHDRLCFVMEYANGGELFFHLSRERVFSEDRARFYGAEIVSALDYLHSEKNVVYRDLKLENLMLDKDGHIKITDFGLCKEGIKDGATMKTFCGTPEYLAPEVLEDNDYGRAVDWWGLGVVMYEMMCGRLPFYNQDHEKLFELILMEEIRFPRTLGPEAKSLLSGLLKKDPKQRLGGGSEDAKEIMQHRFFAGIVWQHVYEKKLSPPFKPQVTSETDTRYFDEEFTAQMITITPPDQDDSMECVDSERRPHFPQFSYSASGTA
Assay: Live cell target engagement by NanoBRET competitive probe displacement, AKT1 E17K
Assay type: binding
Conditions: transfected HEK293 cells, 2 h at 37° C., read-out: AKT1 E17K IC50: GeoMean IC50
pIC50: −log10 of the molar value.
Measured pIC50 of individual entries

# count of solved cases: 5
Give a short answer stating reported pIC50 for Nc1ncccc1-c1nc2ccc(-n3cc(F)cn3)nc2n1-c1ccc2c(c1)CC[C@@H]2NC(=O)c1ccc(O)c(C=O)c1 [Example 76] .
7.00 to 8.00

Give a short answer stating reported pIC50 for Nc1ncccc1-c1nc2ccc(-n3cccn3)nc2n1-c1ccc2c(c1)CC[C@@H]2NC(=O)c1cc(F)c(O)c(C=O)c1 [Example 81] .
7.00 to 8.00

Give a short answer stating reported pIC50 for C#Cc1cc(-n2cccn2)nc2c1nc(-c1cccnc1N)n2-c1ccc2c(c1)CC[C@@H]2NC(=O)c1ccc(O)c(C=O)c1 [Example 201] .
7.00 to 8.00

Give a short answer stating reported pIC50 for Nc1ncccc1-c1nc2c(N3CCOCC3)cc(-n3cccn3)nc2n1-c1ccc2c(c1)CC[C@@H]2NC(=O)c1ccc(O)c(C=O)c1 [Example 224] .
7.00 to 8.00

Give a short answer stating reported pIC50 for Nc1ncccc1-c1nc2ccc(-n3cccn3)nc2n1-c1ccc2c(c1)CC(F)[C@@H]2NC(=O)c1ccc(O)c(C=O)c1 (single isomer, unassigned) [Example 256] .
7.00 to 8.00

Let us move to another entry and its pIC50.
Give a short answer stating reported pIC50 for Nc1ncccc1-c1nc2ccc(-n3cccn3)nc2n1-c1ccc2c(c1)CC[C@@H]2NC(=O)c1cc(C=O)c(O)c(Cl)c1F [Example 123] .
> 8.00
